Entries annotated with measured morphology score
# Tested on: Vero E6 infected with SARS-CoV-2
# protocol_details: morphology score (similarity to uninfected cells); higher = more like uninfected cells
# recorded_conditions: 24 h

See these solved cases before continuing.
Cc1c(F)cc(C(=O)NC2CC2)cc1-c1c(F)cn2c(C(C)(C)C)nnc2c1F (10 µM) ... -0.202
C[C@@H]1CN(c2c(F)c(N)c3c(=O)c(C(=O)O)cn(C4CC4)c3c2F)C[C@H](C)N1 [sparfloxacin] (10 µM) ... -0.0335
CCN(CC)CC1CCN(c2ncc3ncnc(Nc4ccc(F)c(Cl)c4)c3n2)CC1 (10 µM) ... -0.273
CN1CCC(OC(c2ccccc2)c2ccccc2)CC1 [diphenylpyraline] (10 µM) ... 0.291

Let us examine a further case.
# lookup: morphology score of CCCCCCCC/C=C/C(=O)O [trans-2-undecenoic-acid] (10 µM)
0.204
